# Tested on: MDA-MB-468 breast
# EXPERIMENT: NCI-60 one-dose screen, 48 h (100 = growth as untreated, 0 = no growth, -100 = all killed)
# SETUP_CONDITIONS: 10 µM unless noted
This is part of a sample that, as a whole, favours compounds with a hit. Of some 83,000 tested, about 20% had one in any assay.
ENDPOINT_NAME: growth (%)
Answers are plain numbers, in %.

Solved entries (count: 8):
O=[N+]([O-])c1cccc([I+]c2ccccc2)c1 : 20.2
CCCCCCCCC(=O)OCCCC(CCC(CCC1CCCO1)OC(=O)CCCCCCCC)OC(=O)CCCCCCCC (stereo not drawn) : 111
CN(C)c1ccc(C(C#N)(c2ccccc2)c2ccc(N(C)C)cc2)cc1 : 82.8
COC(=O)c1ccc(NC2=C(Cl)C(=O)C(C)=C(C)C2=O)cc1 : -45.9
CCN1CCN(CCCN(C[C@H]2Cc3ccccc3CN2)[C@H]2CCCc3cccnc32)CC1 : 87.1
OCCN(CCO)C(=S)S : 102
Cn1cc(-c2nonc2-c2c[nH]c3ccccc23)c2ccccc21 : -4.56
NC(=O)c1ccc(-c2cccc3c(=O)nc(N4CCOCC4)oc23)cc1 : 105

Would you be so kind as to report growth for each listed record?
1. N#CCCCCCCCCCCC#N
2. COc1cc(/C=N/Nc2ccnc3cc(Cl)ccc23)cc(OC)c1O
3. COP(=O)(OC)C(C)(C)CC(=O)CC(C#N)(C#N)C(C#N)C#N
4. COc1ccc(C(=O)C(=O)c2ccccc2)cc1

[112, -72.1, 104, 101]

---

Please respond with reported growth for every item in the list.
# Tested on: MDA-MB-468 breast
# EXPERIMENT: NCI-60 one-dose screen, 48 h (100 = growth as untreated, 0 = no growth, -100 = all killed)
# SETUP_CONDITIONS: 10 µM unless noted
Compounds without any hit were thinned out: in the full panel of roughly 83,000, 20% have a hit. The source made the active and inactive calls. Rule for the calls: active = growth percent below 10; inactive = the rest.

Solved entries (count: 8):
CC(=O)NC(CCc1ccc(Cl)c(Cl)c1)c1cccc(O)c(=O)c1 (configuration not stated) : -31.6% (active)
COC(=O)CSc1ccc(Cl)cc1 : 126% (inactive)
COc1ccc(C(=O)c2cc(C)c(OC)c(C)c2)c(OC)c1N(C(=O)CCl)C(=O)CCl : 3.62% (active)
CCOc1c(Br)cc(C2C(C(=O)OC)=CN(C)C=C2C(=O)OC)cc1OC : 0.386% (active)
O=C(Nc1cccc(F)c1)c1cc(=O)[nH]c2cc(Br)ccc12 : 55.3% (inactive)
CCN(CCCNC(=O)Cc1cc(=O)oc2cc(N(C)C)ccc12)CCNc1ccnc2cc(Cl)ccc12 : 52% (inactive)
COc1cc(C2C3=C(COC3=O)N(CCO)c3cc4c(cc32)CCC4)cc(OC)c1O (configuration not stated) : -21.7% (active)
O=C(Cn1cc(CSc2nc3ccccc3o2)nn1)Nc1ccc([N+](=O)[O-])cc1 : 98.7% (inactive)

Would you be so kind as to report growth for each listed record?
1. Clc1ccc(C(Cn2ccnc2)OCc2ccsc2Cl)c(Cl)c1 (configuration not stated)
2. CCc1n(Cc2ccc3ccccc3c2)c2ccccc2[n+]1Cc1ccc2ccccc2c1
3. O=c1cc(-c2ccc3c(c2)OCCO3)oc2cc(Cl)ccc12
4. Cc1ccc(-c2nnc(COc3ccc(-c4nnc(N)s4)cc3)o2)cc1
5. O=C(NCc1cccc(C(F)(F)F)c1)[C@H](CCC(=O)N1CCN(C2CCCCC2)CC1)N1C(=O)[C@@H](N2C(=O)OC[C@@H]2c2ccccc2)[C@H]1/C(Cl)=C/c1ccccc1

9.75% (active)
5.98% (active)
66.4% (inactive)
72.7% (inactive)
-5.16% (active)

---

# Test system: KM12 colon
# EXPERIMENT: NCI-60 one-dose screen, 48 h
# SETUP_CONDITIONS: 10 µM
The panel holds about 83,000 compounds, 20% with a hit somewhere; the sample as a whole holds those more often. Active and inactive are the calls of the source. How the source made its calls: active means growth percent below 10; inactive means the rest.
Outcomes you can answer with include only these: active, inactive

Consider the worked cases shown below.
O=C(CSc1nc2ccccc2c(=O)n1-c1ccc(Cl)cc1)Nc1ccc(-c2nc3ccccc3[nH]2)cc1 : inactive
Fc1ccc(-c2csc(Nc3cccc(Nc4nc(-c5ccc(F)cc5)cs4)c3)n2)cc1 : inactive
CC(C)(C)c1cc(/C=C2\S/C(=N/c3ncn[nH]3)NC2=O)cc(C(C)(C)C)c1O : inactive

Dear all, I need the recorded test outcome for CC1(C)CC(=O)C2=C(C1)N(Cc1ccc(C(=O)O)cc1)C1=C(C(=O)CC(C)(C)C1)C2c1ccc(Cl)cc1 , thank you.
inactive

Dear all, I need the recorded test outcome for Cc1cc(N=C2NC(=O)S/C2=C\c2ccc(F)cc2)n[nH]1 , thank you.
inactive

Dear all, I need the recorded test outcome for CCn1c(SCC(=O)Nc2ccc(-c3nc4ccccc4[nH]3)cc2)nc2ccccc2c1=O , thank you.
active

---

# Test system: LOX IMVI melanoma
# EXPERIMENT: NCI-60 one-dose screen, 48 h (100 = growth as untreated, 0 = no growth, -100 = all killed)
# SETUP_CONDITIONS: 10 µM
Compounds without any hit were thinned out: in the full panel of roughly 83,000, 20% have a hit.
Please respond with reported growth for every item in the list.
Give bare numbers, in %.

Solved entries (count: 4):
Cc1ccc2c(c1)C(=O)/C(=C/c1c[nH]c3ccccc13)S2 : 19.1
COc1cccc(C(=O)CSc2nc(-c3ccc(OCc4ccccc4)c(OC)c3)c(C#N)c(=O)[nH]2)c1 : 85.7
COc1ccc(Cn2cc(C#N)c(N)c2C(C)=O)c(OC)c1 : 99.6
O=[N+]([O-])c1cccc(-c2nnc3c(/C=C/c4ccccc4O)nc4ccccc4n23)c1 : 56.1

For COc1ccc(C2c3sc4ccc(C)cc4c3Oc3nc(N)nc(N)c32)cc1 (stereo not given) the molecule record lists growth as 80.8

---

# Tested on: MDA-MB-468 breast
# EXPERIMENT: NCI-60 one-dose screen, 48 h
# SETUP_CONDITIONS: 10 µM unless noted
This is part of a sample that, as a whole, favours compounds with a hit. Of some 83,000 tested, about 20% had one in any assay. The source made the active and inactive calls. Rule for the calls: active = growth percent below 10; inactive = the rest.
Outcomes you can answer with include only these: active, inactive

Consider the worked cases shown below.
Oc1ccc(CN2CCC(N3CCOCC3)CC2)c2cccnc12 : inactive
Nc1nc2c(c3ncncc13)C(c1cccc(C(F)(F)F)c1)Cc1ncncc1-2 (stereo unspecified) : active

Dear all, I need the recorded test outcome for Cc1nc(NC(=O)NC2CCCCC2)sc1C(=O)NN , thank you.
inactive

Dear all, I need the recorded test outcome for CC(C)(Cl)CCC1=C(Cl)C(=O)c2ccccc2C1=O , thank you.
active

---

# System: MDA-MB-468 breast
# EXPERIMENT: NCI-60 one-dose screen, 48 h
# SETUP_CONDITIONS: 10 µM unless noted
The panel holds about 83,000 compounds, 20% with a hit somewhere; the sample as a whole holds those more often. Activity calls are given as the source filed them. How the source made its calls: active means growth percent below 10; inactive means the rest.
Outcomes you can answer with include only these: Y = active, N = inactive

Consider the worked cases shown below.
Cc1nn(-c2ccc(Br)cc2)c2nc3[nH]c(=O)[nH]c(=O)c3nc12 : N
CCCCn1c(-c2ccc(C(=O)O/N=C(\N)c3ccc(OC)cc3)cc2)nc(-c2ccccc2)c1-c1ccccc1 : Y
O=C(C(=O)c1ccc2c(c1)OCO2)c1ccc2c(c1)OCO2 : N
c1ccc(C(Nc2ccccn2)(c2ccccc2)c2ccccc2)cc1 : N
O=S(=O)(Oc1ccc(-c2ccc3sccc3c2)cc1)c1ccccc1 : N
O=S(=O)(NCCNc1nccc(-c2c(-c3ccc(F)cc3)nc3sccn23)n1)c1ccc(F)cc1 : N
COc1cc(-c2nc(-c3nnc(-c4cccnc4)o3)c3ccccn23)cc(OC)c1OC : N
COc1ccc(-c2cc(C(=O)N3N=C(c4ccc(N)cc4)CC3c3ccc(Cl)cc3)c3ccccc3n2)cc1 (stereo not given) : N
Nc1ccn(C2OC(CO)C(O)C2F)c(=O)n1 (stereo not given) : N
CCOC(=O)c1cnn(-c2nc(-c3ccc(F)cc3)c(C#N)c(N3CCOCC3)n2)c1N : N

Dear all, I need the recorded test outcome for CN(C)c1ccc(Nc2c3ccccc3nc3cc(NC(=O)CCN4CCCC4)ccc23)cc1 , thank you.
Y

Dear all, I need the recorded test outcome for COc1ccccc1CNCCCN1C(=O)c2ccc3c4c(ccc(c24)C1=O)C(=O)N(CCCN)C3=O , thank you.
Y

Dear all, I need the recorded test outcome for O=C1/C(=C/c2ccc(O)cc2)Cc2ccc(Cl)cc21 , thank you.
N

---

# Test system: MDA-MB-468 breast
# EXPERIMENT: NCI-60 one-dose screen, 48 h
# SETUP_CONDITIONS: 10 µM unless noted
# Method: Growth inhibition of the MDA-MB-468 human Breast tumor cell line is measured as a screen for anti-cancer activity. Cells are grown in 96 well plates and exposed to the test compound for 48 hours. Compounds are tested at a single concentration, which is 10^-5 M for most compounds. The reported endpoint is percent growth (GI% or GIPRCNT), where numbers from 0 - 100% represent growth inhibition, and numbers from -100% - 0 represent cell death. […]
Compounds without any hit were thinned out: in the full panel of roughly 83,000, 20% have a hit. The source made the active and inactive calls. The calls were made as follows: active = growth percent below 10; inactive = the rest.
Outcomes you can answer with include only these: 1.0 for active, 0.0 for inactive

Consider the worked cases shown below.
CCCCC(CC)OC(=O)C(Br)CC (stereo not given) : 0.0
CCCCCCCCCCCCc1ccc([N+](CC)(CC)CC)cc1 : 1.0
Cc1nc2ccccc2c(/C=C/c2ccccc2)c1C(=O)/C=C/c1ccc(C(F)(F)F)cc1 : 1.0

Dear all, I need the recorded test outcome for CCNc1nc(S(=O)(=O)CC)nc2ccccc12 , thank you.
0.0

Dear all, I need the recorded test outcome for Cc1ccc(-c2nc(/C=C3/C(=O)Nc4ccc(F)cc43)c3ccccn23)cc1 , thank you.
0.0

Dear all, I need the recorded test outcome for O=C(NO)c1ccc(Cn2c(=O)n(CCc3ccccc3)c(=O)c3ccccc32)cc1 , thank you.
0.0

Dear all, I need the recorded test outcome for CN(Cc1cc(Cl)cc(Cl)c1O)Cc1cc(Cl)cc(Cl)c1O , thank you.
0.0

Dear all, I need the recorded test outcome for O=C1c2c(O)cc(O)cc2O[C@@H](c2ccc(O)cc2)[C@@H]1c1c(O)cc(O)c2c(=O)cc(-c3ccc(O)c(O)c3)oc12 , thank you.
0.0

Dear all, I need the recorded test outcome for CN(C)c1ccc(C(=C2C=CC(=[N+](C)C)C=C2)c2ccc(N(C)C)cc2)cc1 , thank you.
1.0

Dear all, I need the recorded test outcome for N#CC(=Nc1cccc(F)c1)C1=C(O)c2ccccc2C1=O , thank you.
0.0
